# assay_remarks: qHTS assay for cell viability of the p53RE-bla HCT-116 cell line (AID 743292); note: nearly all actives have a fitted effect of over 55% in size
# measurement_setup: p53RE-bla HCT-116 viability, ATP luminescence, 16 h; series mostly up to 95 µM
Records with an inconclusive call do not appear. Activity calls are given as the source filed them. Calls come from the whole dose curve; as a rule, active = well fitted cell-killing curve with a large enough effect; inconclusive = small, poorly fitted or top-dose-only effect, or effect the other way; inactive = flat fitted curve, though single readings scatter.
Possible outcomes: active, inactive

1. Cc1cc(SCc2sc(-c3ccc(C(F)(F)F)c(F)c3)nc2C)ccc1OCC(=O)O = active
2. CC(C)(C)CC(C)(C)c1ccc(O)cc1 = inactive
3. OCCOc1ccccc1 = inactive
4. CNCC(O)c1ccc(O)cc1 (centres undefined) = inactive
5. C[C@]12CCC(=O)C(O)=C1CC[C@@H]1[C@@H]2CC[C@]2(C)C(=O)CC[C@@H]12 = inactive
6. c1ccc2c(c1)Nc1ccccc1S2 = inactive
7. Nc1ccncc1 = inactive
8. CCCC(C)(COC(N)=O)COC(=O)NC(C)C (centres undefined) = inactive
9. N[C@@H](Cc1ccc(N(CCCl)CCCl)cc1)C(=O)O = inactive
